system: C. krusei; assay: Anti-yeast microdilution MIC (CLSI M27-A3); format: cell-based; conditions: Pichia kudriavzevii; C. krusei, molar conversion of MIC; read-out: MIC (in brackets) (converted)
OBSERVED_PROPERTY: MIC (µM)
All answers are understood in µM, so give the number only.

query: Look up and report measured MIC (C. krusei) for the following compound: OC(Cn1cncn1)(Cn1cncn1)c1ccc(F)cc1F [Fluconazole, fluconazole, reference compound]
result: 10.4

Moving on to another compound below.
query: // output MIC; input `COc1c(O)cc2c(=O)oc3c(O)c(O)cc4c(=O)oc1c2c34` ; system C. krusei
result: 61.9

----------
molecular target: glucose-6-phosphate dehydrogenase (G6PD); assay: G6PD inhibition, NADP+ reduction at 340 nm; type: biochemical, Lake Van fish; settings: saturated substrate, five inhibitor concentrations, read-out: IC50
pIC50: −log10 of the molar value.
OBSERVED_PROPERTY: pIC50

query: Report measured pIC50; entry is CC1(C)CCC2(C(=O)OC3OC(CO)C(O)C(O)C3O)CCC3(C)C(=CCC4C5(C)CC(O)C(O)C(C)(CO)C5CCC43C)C2C1O (stereo not shown) [Arjunglucoside]
result: > 5.40

----------
biological target: human erythrocyte carbonic anhydrase II (Homo sapiens)
OBSERVED_PROPERTY: Ki (nM)
Respond with the bare value in nM.

query: Provide Ki, recorded with human erythrocyte carbonic anhydrase II (Homo sapiens), of CC1(C)CCC2(C(=O)OC3OC(CO)C(O)C(O)C3O)CCC3(C)C(=CCC4C5(C)CC(O)C(O)C(C)(CO)C5CCC43C)C2C1O (stereo not shown) [Arjunglucoside]
result: 1840

----------
Measured IC50 (human erythrocyte carbonic anhydrase I (Homo sapiens))
Provide the reading as a plain figure in µM.

query: Give recorded IC50. `CC1(C)CC[C@]2(C(=O)O)CC[C@]3(C)C(=CC[C@@H]4[C@@]5(C)C[C@@H](O)[C@H](O)[C@@](C)(CO)[C@@H]5CC[C@]43C)[C@@H]2[C@@H]1O`
result: 86.6

Others:
query: Provide only the value of recorded IC50 for CC1(C)CCC2(C(=O)OC3OC(CO)C(O)C(O)C3O)CCC3(C)C(=CCC4C5(C)CC(O)C(O)C(C)(CO)C5CCC43C)C2C1O (centres unmarked) [Arjunglucoside]
result: 3.28

----------
Target or system UniProt:P00915: recorded pKi listed per item.
# reply with the number alone; pKi is -log10 of concentration in mol/L

query: Enter recorded pKi with UniProt:P00915 for `CC1(C)CC[C@]2(C(=O)O)CC[C@]3(C)C(=CC[C@@H]4[C@@]5(C)C[C@@H](O)[C@H](O)[C@@](C)(CO)[C@@H]5CC[C@]43C)[C@@H]2[C@@H]1O` here.
result: 4.14

Others:
query: Enter measured pKi, system UniProt:P00915, for the molecule shown: CC1(C)CCC2(C(=O)OC3OC(CO)C(O)C(O)C3O)CCC3(C)C(=CCC4C5(C)CC(O)C(O)C(C)(CO)C5CCC43C)C2C1O (centres unmarked) [Arjunglucoside]
result: 5.57

----------
tested on: C. albicans; assay: Anti-yeast microdilution MIC (CLSI M27-A3); assay type: cell-based; conditions: Candida albicans; C. albicans clinical isolate, 37 °C, 48 h, ± SD; read-out: MIC
Form field: MIC (one value per entry).
Only the number, expressed in µg/mL, is required.

Recorded results for 2 compounds are shown here.
query: Return the recorded MIC value; entry: COc1c(O)cc2c(=O)oc3c(O)c(OC4OC(C)C(O)C(O)C4O)cc4c(=O)oc1c2c34 (stereo not shown)
result: 9.7

query: Return the recorded MIC value; entry: COc1c(O)cc2c(=O)oc3c(O)c(O)cc4c(=O)oc1c2c34 [3-O-methyl ellagic acid, 3-O-methylellagic acid]
result: 156

Here's the next entry for you.
query: Specify MIC for OC(Cn1cncn1)(Cn1cncn1)c1ccc(F)cc1F [Fluconazole, fluconazole, reference compound] and stop.
result: 8

----------
biological target: UniProt:P00918
OBSERVED_PROPERTY: pIC50
Please note pIC50 is a logarithmic value: minus log10 of concentration in mol/L. Answer with that number alone.

query: Provide UniProt:P00918 pIC50 reading for CC1(C)CCC2(C(=O)OC3OC(CO)C(O)C(O)C3O)CCC3(C)C(=CCC4C5(C)CC(O)C(O)C(C)(CO)C5CCC43C)C2C1O (stereo not shown) [Arjunglucoside] .
result: 5.99
